- Tested on: HeLa Kyoto;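 further: HeLa Kyoto cells synchronized by double thymidine or nocodazole block, proteins quantified by TMT10plex mass spectrometry, three independent biological replicates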
- Assay overview: melting temperature (median over replicates), in situ; higher = more thermally stable
- Run parameters: cell cycle stage: mitosis
Measurement type: melting temperature (°C)
Hi! Could you send only the number? It should be in °C, unit omitted.

Worked examples follow.
residue_sequence="MSLRKQTPSDFLKQIIGRPVVVKLNSGVDYRGVLACLDGYMNIALEQTEEYVNGQLKNKYGDAFIRGNNVLYISTQKRRM [LSM6]" measurement_type="melting temperature" data_value=54
residue_sequence="MDSAGQDINLNSPNKGLLSDSMTDVPVDTGVAARTPAVEGLTEAEEEELRAELTKVEEEIVTLRQVLAAKERHCGELKRRLGLSTLGELKQNLSRSWHDVQVSSAYVKTSEKLGEWNEKVTQSDLYKKTQETLSQAGQKTSAALSTVGSAISRKLGDMRNSATFKSFEDRVGTIKSKVVGDRENGSDNLPSSAGSGDKPLSDPAPF [TPD52L2]" measurement_type="melting temperature" data_value=52.7
residue_sequence="MSTAAVPELKQISRVEAMRLGPGWSHSCHAMLYAANPGQLFGRIPMRFSVLMQMRFDGLLGFPGGFVDRRFWSLEDGLNRVLGLGLGCLRLTEADYLSSHLTEGPHRVVAHLYARQLTLEQLHAVEISAVHSRDHGLEVLGLVRVPLYTQKDRVGGFPNFLSNAFVSTAKCQLLFALKVLNMMPEEKLVEALAAATEKQKKALEKLLPASS [NUDT16L1]" measurement_type="melting temperature" data_value=52.3
residue_sequence="MKAVVQRVTRASVTVGGEQISAIGRGICVLLGISLEDTQKELEHMVRKILNLRVFEDESGKHWSKSVMDKQYEILCVSQFTLQCVLKGNKPDFHLAMPTEQAEGFYNSFLEQLRKTYRPELIKDGKFGAYMQVHIQNDGPVTIELESPAPGTATSDPKQLSKLEKQQQRKEKTRAKGPSESSKERNTPRKEDRSASSGAEGDVSSEREP [DTD1]" measurement_type="melting temperature" data_value=57.5
residue_sequence="MTGKKSSREKRRKRSSQEAAAALAAPDIVPALASGSSGSTSGCGSAGGCGSVSCCGNANFSGSVTGGGSGGSCWGGSSVERSERRKRRSTDSSSVSGSLQQETKYILPTLEKELFLAEHSDLEEGGLDLTVSLKPVSFYISDKKEMLQQCFCIIGEKKLQKMLPDVLKNCSIEEIKKLCQEQLELLSEKKILKILEGDNGMDSDMEEEADDGSKMGSDLVSQQDICIDSASSVRENKQPEGLELKQGKGEDSDVLSINADAYDSDIEGPCNEEAAAPEAPENTVQSEAGQIDDLEKDIEKSVNEILGLAESSPNEPKAATLAVPPPEDVQPSAQQLELLELEMRARAIKALMKAGDIKKPA [CAAP1]" measurement_type="melting temperature" data_value=51.8

Turning now to a further sequence:
Query: Suppose we examine the sequence MRAVLAREMDGRRVLGRFWSGWRRGLGVRPVPEDAGFGTEARHQRQPRGSCQRSGPLGDQPFAGLLPKNLSREELVDALRAAVVDRKGPLVTLNKPQGLPVTGKPGELTLFSVLPELSQSLGLREQELQVVRASGKESSGLVLLSSCPQTASRLQKYFTHARRAQRPTATYCAVTDGIPAASEGKIQAALKLEHIDGVNLTVPVKAPSRKDILEGVKKTLSHFRVVATGSGCALVQLQPLTVFSSQLQVHMVLQLCPVLGDHMYSARVGTVLGQRFLLPAENNKPQRQVLDEALLRRLHLTPSQAAQLPLHLHLHRLLLPGTRARDTPVELLAPLPPYFSRTLQCLGLRLQ [RPUSD3] ; what melting temperature value has been reported?
Response: 51.2

These entries and their values trace back to the supplement of paper PMC5998384.
